Values were extracted from patent US20250270315A1.

# Assay system: T1, full length human SIRPα v1 stably expressed on CHOK1 or 293F cells (human, UniProt P78324 31-504)
# T1 construct: whole, on cells; also called CHOK1-human SIRPα v1; CHOK1-hSIRPα v1
# T1 sequence (P78324 31-504): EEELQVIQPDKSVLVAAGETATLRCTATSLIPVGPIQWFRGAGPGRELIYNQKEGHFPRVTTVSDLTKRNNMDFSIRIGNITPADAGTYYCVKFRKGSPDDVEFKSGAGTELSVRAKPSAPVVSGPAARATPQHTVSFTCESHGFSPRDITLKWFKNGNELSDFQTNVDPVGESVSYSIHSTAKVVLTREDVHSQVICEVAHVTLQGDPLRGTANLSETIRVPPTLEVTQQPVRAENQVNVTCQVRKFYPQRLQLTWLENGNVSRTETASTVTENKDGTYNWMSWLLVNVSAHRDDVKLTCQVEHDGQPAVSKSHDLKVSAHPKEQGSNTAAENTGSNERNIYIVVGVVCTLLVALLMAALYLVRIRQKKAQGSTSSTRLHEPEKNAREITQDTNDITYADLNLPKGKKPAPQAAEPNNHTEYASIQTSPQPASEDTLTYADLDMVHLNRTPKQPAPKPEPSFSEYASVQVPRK
# Assay text: FACS, CHOK1-hSIRPα v1 cells
Item-by-item account of pEC50
When answering, recall that pEC50 equals minus log10 of the concentration in mol/L, and write that number alone.

See these solved cases before continuing.
[[record]]
binder = "042c (antibody, V domains shown, also called chimeric antibody 042c) VH: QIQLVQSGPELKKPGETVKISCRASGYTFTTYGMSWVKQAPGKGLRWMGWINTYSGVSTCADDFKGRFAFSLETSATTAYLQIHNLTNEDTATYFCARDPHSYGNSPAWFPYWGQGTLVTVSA VL: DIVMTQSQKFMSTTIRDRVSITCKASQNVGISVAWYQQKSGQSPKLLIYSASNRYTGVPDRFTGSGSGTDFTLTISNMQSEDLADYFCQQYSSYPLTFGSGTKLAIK"
meas_value = 8.72

[[record]]
binder = "025c (antibody, V domains shown, also called chimeric antibody 025c; parental antibody of 025c) VH: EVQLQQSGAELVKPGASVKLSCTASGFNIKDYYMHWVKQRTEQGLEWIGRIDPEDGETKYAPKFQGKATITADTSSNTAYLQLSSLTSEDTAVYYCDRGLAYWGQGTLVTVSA VL: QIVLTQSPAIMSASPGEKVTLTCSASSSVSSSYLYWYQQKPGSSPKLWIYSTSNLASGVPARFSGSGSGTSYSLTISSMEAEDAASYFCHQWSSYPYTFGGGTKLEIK"
meas_value = 8.83

[[record]]
binder = "071c (antibody, V domains shown, also called chimeric antibody 071c) VH: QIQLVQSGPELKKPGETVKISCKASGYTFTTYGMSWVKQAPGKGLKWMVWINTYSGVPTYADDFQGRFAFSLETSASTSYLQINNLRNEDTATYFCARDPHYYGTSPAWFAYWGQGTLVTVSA VL: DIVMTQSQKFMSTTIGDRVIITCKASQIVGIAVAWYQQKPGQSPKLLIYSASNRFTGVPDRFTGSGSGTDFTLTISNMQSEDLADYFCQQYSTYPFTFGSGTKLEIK"
meas_value = 8.59

[[record]]
binder = "059c (antibody, V domains shown, also called chimeric antibody 059c) VH: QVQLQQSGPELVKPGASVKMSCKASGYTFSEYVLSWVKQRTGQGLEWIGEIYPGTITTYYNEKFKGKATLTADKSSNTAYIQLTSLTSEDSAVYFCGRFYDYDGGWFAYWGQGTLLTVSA VL: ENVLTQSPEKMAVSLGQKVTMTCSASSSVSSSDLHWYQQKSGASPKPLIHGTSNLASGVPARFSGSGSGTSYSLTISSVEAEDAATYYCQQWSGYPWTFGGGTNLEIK"
meas_value = 8.84

[[record]]
binder = "hu1H9G4 (antibody, V domains shown) VH: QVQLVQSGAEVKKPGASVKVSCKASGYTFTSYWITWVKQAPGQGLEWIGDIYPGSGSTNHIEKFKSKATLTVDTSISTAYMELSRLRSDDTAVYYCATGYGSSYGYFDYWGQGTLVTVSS VL: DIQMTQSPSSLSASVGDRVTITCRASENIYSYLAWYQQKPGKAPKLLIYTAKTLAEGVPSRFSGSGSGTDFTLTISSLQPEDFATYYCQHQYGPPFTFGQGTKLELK"
meas_value = 8.71

[[record]]
binder = "073c (antibody, V domains shown, also called chimeric antibody 073c) VH: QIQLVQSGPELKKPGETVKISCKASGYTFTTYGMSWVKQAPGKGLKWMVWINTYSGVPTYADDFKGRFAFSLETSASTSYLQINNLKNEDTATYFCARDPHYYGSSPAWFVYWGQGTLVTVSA VL: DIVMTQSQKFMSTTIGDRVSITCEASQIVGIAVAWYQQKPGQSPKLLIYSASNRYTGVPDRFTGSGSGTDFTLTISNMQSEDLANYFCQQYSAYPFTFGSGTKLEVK"
meas_value = 8.82


Kindly consider the entry below.
Request the reported pEC50 associated with 015c (antibody, V domains shown, also called chimeric antibody 015c) VH: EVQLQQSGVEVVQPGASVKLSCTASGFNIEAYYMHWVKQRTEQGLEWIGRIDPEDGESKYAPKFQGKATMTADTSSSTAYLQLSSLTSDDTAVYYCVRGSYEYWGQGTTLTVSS VL: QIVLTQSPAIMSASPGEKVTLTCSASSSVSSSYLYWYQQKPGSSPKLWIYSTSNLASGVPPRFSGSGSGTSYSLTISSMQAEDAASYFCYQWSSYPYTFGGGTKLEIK 8.83
